Origin of values: ChEMBL document CHEMBL2401686

Test system: Mus musculus
assayComment: Neurotoxicity in mouse assessed as inability to maintain equilibrium on rod at 100 mg/kg, po after 4 hrs by rotarod test relative to control
Format: toxicity, organism-based
Design: dose 100 mg/kg, route oral
runParameters: in vivo
Recorded Activity by entry
resultType: Activity (%)

| molecule | tgt | resultType | recordedResult |
| --- | --- | --- | --- |
| COc1ccc(-c2nnc(N3CCN(S(=O)(=O)c4ccccc4[N+](=O)[O-])CC3)o2)cc1 | Mus musculus | Activity | 0 |
| COc1ccc(-c2nnc(N3CCN(S(=O)(=O)c4cccc(C(F)(F)F)c4)CC3)o2)cc1 | Mus musculus | Activity | 0 |
| COc1ccc(-c2nnc(N3CCN(S(=O)(=O)c4ccc5ccccc5c4)CC3)o2)cc1 | Mus musculus | Activity | 25 |
| COc1ccc(-c2nnc(N3CCN(S(=O)(=O)c4ccc(-c5ccccc5)cc4)CC3)o2)cc1 | Mus musculus | Activity | 0 |
| COc1ccc(-c2nnc(N3CCN(S(=O)(=O)c4ccc(C)cc4)CC3)o2)cc1 | Mus musculus | Activity | 25 |
| COc1ccc(-c2nnc(N3CCN(S(=O)(=O)c4ccc(C#N)cc4)CC3)o2)cc1 | Mus musculus | Activity | 0 |
| O=C1NC(=O)C(c2ccccc2)(c2ccccc2)N1 [PHENYTOIN] | Mus musculus | Activity | 0 |
| COc1ccc(-c2nnc(N3CCN(S(=O)(=O)c4ccc(Br)c(C)c4)CC3)o2)cc1 | Mus musculus | Activity | 0 |
| COc1ccc(-c2nnc(N3CCN(S(=O)(=O)c4ccc(C(C)(C)C)cc4)CC3)o2)cc1 | Mus musculus | Activity | 0 |
| COc1ccc(-c2nnc(N3CCN(S(=O)(=O)c4cc(Cl)sc4Cl)CC3)o2)cc1 | Mus musculus | Activity | 0 |
| COc1ccc(-c2nnc(N3CCN(S(C)(=O)=O)CC3)o2)cc1 | Mus musculus | Activity | 25 |
| COc1ccc(-c2nnc(N3CCN(S(=O)(=O)c4ccc(Br)cc4)CC3)o2)cc1 | Mus musculus | Activity | 0 |
| COc1ccc(-c2nnc(N3CCN(S(=O)(=O)c4ccc(Oc5ccccc5)cc4)CC3)o2)cc1 | Mus musculus | Activity | 0 |
| COc1ccc(-c2nnc(N3CCN(S(=O)(=O)c4ccc(I)cc4)CC3)o2)cc1 | Mus musculus | Activity | 0 |
| COc1ccc(-c2nnc(N3CCN(S(=O)(=O)c4c(C)noc4C)CC3)o2)cc1 | Mus musculus | Activity | 0 |

----------
Tested on: Mus musculus
assayComment: Neurotoxicity in mouse assessed as inability to maintain equilibrium on rod at 100 mg/kg, po after 2 hrs by rotarod test relative to control
Format: toxicity, organism-based
Design: dose 100 mg/kg, route oral
runParameters: in vivo

| smilesEntry | Activity, % |
| --- | --- |
| O=C1NC(=O)C(c2ccccc2)(c2ccccc2)N1 | 0 |
| COc1ccc(-c2nnc(N3CCN(S(=O)(=O)c4ccc(I)cc4)CC3)o2)cc1 | 0 |
| COc1ccc(-c2nnc(N3CCN(S(=O)(=O)c4c(C)noc4C)CC3)o2)cc1 | 0 |
| COc1ccc(-c2nnc(N3CCN(S(=O)(=O)c4ccccc4[N+](=O)[O-])CC3)o2)cc1 | 0 |
| COc1ccc(-c2nnc(N3CCN(S(=O)(=O)c4cccc(C(F)(F)F)c4)CC3)o2)cc1 | 0 |
| COc1ccc(-c2nnc(N3CCN(S(=O)(=O)c4ccc(C#N)cc4)CC3)o2)cc1 | 0 |
| COc1ccc(-c2nnc(N3CCN(S(=O)(=O)c4cc(Cl)sc4Cl)CC3)o2)cc1 | 0 |
| COc1ccc(-c2nnc(N3CCN(S(=O)(=O)c4ccc5ccccc5c4)CC3)o2)cc1 | 25 |
| COc1ccc(-c2nnc(N3CCN(S(=O)(=O)c4ccc(C)cc4)CC3)o2)cc1 | 25 |
